Assay: PK study following IV and PO administration in male CD1 mice
Type: in vivo, mouse
Conditions: mouse, PO, 50 mg/kg, plasma, mean of three mice
# half-life listing for each entry below
Dear colleague, please return just the value in h, with no unit written.

[[record]]
compound = "NCc1ccnc(S(=O)(=O)N2C[C@@H](C(=O)N3CCS(=O)(=O)CC3)C[C@@H](C3CCCCC3)C2)c1.O=C(O)C(F)(F)F (racemic)"
unit_spec = "h"
assay_value = 5.62


Kindly review the next compound as well.
Exercise: Query: half-life; subject: CN(C)C(=O)N1C[C@@H](c2ccccc2)C[C@@H](S(=O)(=O)c2cccc(CN)c2)C1.O=C(O)C(F)(F)F (racemic)
Key: 0.821

----------
Catalogue of MRT inf readings, one per entry.
Experiment: PK study following IV and PO administration in male CD1 mice
Assay type: in vivo, mouse
Details: mouse, IV, 10 mg/kg, plasma, mean of three mice, read-out: MRTInf—obs
Report the figure in min without appending any unit label.

[[record]]
compound = "NCc1ccnc(S(=O)(=O)N2C[C@@H](C(=O)N3CCS(=O)(=O)CC3)C[C@@H](C3CCCCC3)C2)c1.O=C(O)C(F)(F)F (racemic)"
unit_spec = "min"
assay_value = 51


# context switch: different compound, same MRT inf
Exercise: Param item = CN(C)C(=O)N1C[C@@H](c2ccccc2)C[C@@H](S(=O)(=O)c2cccc(CN)c2)C1.O=C(O)C(F)(F)F (racemic) ; retrieve measured MRT inf.
Key: 41.5

----------
Target: Recombinant human LOXL2 (lysyl oxidase like 2) (Homo sapiens)
Assay: LOXL2 inhibition assay (fluorometric, cadaverine/Amplex Red/HRP)
Conditions: IC50 class; recombinant human LOXL2, cadaverine substrate; read-out: Activity Range LOXL2
pIC50: −log10 of the molar value.
measurement_kind: pIC50

[[record]]
compound = "CN1CCN(C(=O)[C@H]2C[C@@H](N3CCCCC3)CN(S(=O)(=O)c3cc(CN)ccn3)C2)CC1 (racemic) [Example 150, 2,2,2-trifluoroacetate]"
measurement_kind = "pIC50"
assay_value = "6.00 to 6.30"

[[record]]
compound = "CS(=O)(=O)N1CCN(C(=O)[C@H]2C[C@@H](c3ccccc3)CN(S(=O)(=O)c3cccc(CN)c3)C2)CC1 (racemic) [Example 78, 2,2,2-trifluoroacetate]"
measurement_kind = "pIC50"
assay_value = "6.00 to 6.30"

[[record]]
compound = "NCc1ccnc(S(=O)(=O)N2C[C@@H](C(=O)N3CCOCC3)C[C@@H](c3ccccc3)C2)c1 [Example 133A, 2,2,2-trifluoroacetate]"
measurement_kind = "pIC50"
assay_value = "≥ 6.30"

[[record]]
compound = "NCc1cnc(S(=O)(=O)N2C[C@@H](C(=O)N3CCOCC3)C[C@@H](c3ccccc3)C2)s1 (racemic) [Example 111, 2,2,2-trifluoroacetate]"
measurement_kind = "pIC50"
assay_value = "6.00 to 6.30"

[[record]]
compound = "NCc1cccc(S(=O)(=O)[C@H]2C[C@@H](C(=O)N3CCS(=O)(=O)CC3)CN(C3CCCCC3)C2)c1 (racemic) [Example 143, 2,2,2-trifluoroacetate]"
measurement_kind = "pIC50"
assay_value = "≥ 6.30"


Turning to the following compound.
Exercise: Quick one: pIC50 of CN(C)C(=O)[C@@H]1C[C@H](S(=O)(=O)c2cccc(CN)c2)CN(C2CCCCC2)C1 (racemic) ?
Key: ≥ 6.30

----------
Property: Papp B→A at 2 h, 5 μM; scope: individual compounds
Experiment: Permeability study in Caco-2 cell line
Type: in vitro ADME
Details: human; Caco-2, basolateral to apical, 5 μM, 2 hours, pH 7.4
Provide a numeric answer, followed by its unit.

Exercise: # Papp B→A at 2 h, 5 μM lookup, item CS(=O)(=O)[C@H]1C[C@@H](S(=O)(=O)c2cccc(CN)c2)CN(c2ccccc2)C1 (racemic)
Key: 23.3 ×10⁻⁶ cm/s

Exercise: Endpoint output: Papp B→A at 2 h, 5 μM of NCc1ccc(S(=O)(=O)N2C[C@H](C(=O)N3CCS(=O)(=O)CC3)C[C@@H](c3ccccc3)C2)s1.O=C(O)C(F)(F)F (racemic) [Example 75B] . Value?
Key: 12.1 ×10⁻⁶ cm/s

----------
Target: Recombinant human LOXL2 (lysyl oxidase like 2) (Homo sapiens, UniProt Q9Y4K0)
Sequence (Q9Y4K0 26-774): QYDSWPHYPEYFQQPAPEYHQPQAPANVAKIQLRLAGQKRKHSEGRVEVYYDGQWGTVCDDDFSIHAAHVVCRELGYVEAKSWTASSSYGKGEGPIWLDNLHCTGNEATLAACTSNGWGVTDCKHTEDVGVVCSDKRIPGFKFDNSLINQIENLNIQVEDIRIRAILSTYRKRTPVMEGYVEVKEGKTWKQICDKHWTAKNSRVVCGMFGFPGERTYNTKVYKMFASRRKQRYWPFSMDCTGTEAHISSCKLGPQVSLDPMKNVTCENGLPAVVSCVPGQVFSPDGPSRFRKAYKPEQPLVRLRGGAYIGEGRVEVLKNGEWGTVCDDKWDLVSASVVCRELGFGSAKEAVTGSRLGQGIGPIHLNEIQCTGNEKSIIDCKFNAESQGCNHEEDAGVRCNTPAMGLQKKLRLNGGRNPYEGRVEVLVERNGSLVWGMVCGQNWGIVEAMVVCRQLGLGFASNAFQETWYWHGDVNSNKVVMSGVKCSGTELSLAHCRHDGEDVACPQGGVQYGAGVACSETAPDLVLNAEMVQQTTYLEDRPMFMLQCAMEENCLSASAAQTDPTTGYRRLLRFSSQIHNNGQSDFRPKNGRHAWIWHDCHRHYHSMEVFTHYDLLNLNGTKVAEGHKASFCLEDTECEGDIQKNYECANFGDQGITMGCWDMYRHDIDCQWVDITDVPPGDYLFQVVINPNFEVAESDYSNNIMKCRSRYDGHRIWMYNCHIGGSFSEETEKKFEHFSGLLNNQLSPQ
Test: LOXL2 inhibition assay (fluorometric, cadaverine/Amplex Red/HRP)
Conditions: IC50 class; recombinant human LOXL2, cadaverine substrate; read-out: Activity Range LOXL2
measurement_kind: IC50

[[record]]
molecule = "NCc1cncc(S(=O)(=O)N2C[C@@H](C(=O)N3CCS(=O)(=O)CC3)C[C@@H](c3ccccc3)C2)c1 (racemic) [Example 132, 2,2,2-trifluoroacetate]"
assay_value = "1 to 30 µM"

[[record]]
molecule = "NCc1cccc(S(=O)(=O)[C@H]2C[C@@H](C(=O)N3CCOCC3)CN(C3CCCCC3)C2)c1 (racemic) [Example 142, 2,2,2-trifluoroacetate]"
assay_value = "≤ 0.5 µM"

[[record]]
molecule = "CS(=O)(=O)[C@H]1C[C@@H](S(=O)(=O)c2cccc(CN)c2)CN(c2ccccc2)C1 (racemic)"
assay_value = "≤ 0.5 µM"

[[record]]
molecule = "NCc1cccc(S(=O)(=O)N2C[C@@H](C(=O)N3CCS(=O)(=O)CC3)C[C@@H](c3ccccc3)C2)n1 (racemic) [Example 115, 2,2,2-trifluoroacetate]"
assay_value = "> 30 µM"

[[record]]
molecule = "CN(C)C(=O)N1C[C@@H](c2ccccc2)C[C@@H](S(=O)(=O)c2cccc(CN)c2)C1.O=C(O)C(F)(F)F (racemic) [Example 74, 2,2,2-trifluoroacetate]"
assay_value = "≤ 0.5 µM"


Attention now turns to another entry.
Exercise: Tell me the measured IC50 of CS(=O)(=O)N1CCN(C(=O)[C@H]2C[C@@H](c3ccccc3)CN(S(=O)(=O)c3cccc(CN)n3)C2)CC1 (racemic) , please.
Key: 1 to 30 µM

----------
Collected Tmax values appear next to each entry.
Experiment: PK study following IV and PO administration in male CD1 mice
Type: in vivo, mouse
Conditions: mouse, PO, 50 mg/kg, plasma, mean of three mice
Supply the numeric figure in min, leaving out any unit text.

[[record]]
molecule = "NCc1ccnc(S(=O)(=O)N2C[C@@H](C(=O)N3CCS(=O)(=O)CC3)C[C@@H](C3CCCCC3)C2)c1.O=C(O)C(F)(F)F (racemic) [Example 146]"
measurement_kind = "Tmax"
unit_spec = "min"
assay_value = 15


Exercise: Entry under review: CN(C)C(=O)N1C[C@@H](c2ccccc2)C[C@@H](S(=O)(=O)c2cccc(CN)c2)C1.O=C(O)C(F)(F)F (racemic) [Example 74] . Reported Tmax?
Key: 25

----------
Each entry below carries its reported IC50.
Molecular target: Recombinant human LOXL2 (lysyl oxidase like 2) (Homo sapiens)
Test: LOXL2 inhibition assay (fluorometric, cadaverine/Amplex Red/HRP)
Conditions: IC50 class; recombinant human LOXL2, cadaverine substrate; read-out: Activity Range LOXL2

[[record]]
molecule = "NCc1cccc(S(=O)(=O)N2C[C@@H](C(=O)N3CCOCC3)C[C@@H](C(F)(F)F)C2)c1 (relative stereo) [Example 98, 2,2,2-trifluoroacetate]"
measurement_kind = "IC50"
assay_value = "1000 to 30000 nM"

[[record]]
molecule = "CN(C)C(=O)[C@H]1C[C@H](S(=O)(=O)c2cccc(CN)c2)CN(C2CCCCC2)C1 (racemic) [Example 141T]"
measurement_kind = "IC50"
assay_value = "≤ 500 nM"

[[record]]
molecule = "NCc1cccc(S(=O)(=O)N2C[C@@H](C(=O)N3CCOCC3)C[C@@H](C3CCCCC3)C2)c1 (racemic)"
measurement_kind = "IC50"
assay_value = "500 to 1000 nM"

[[record]]
molecule = "NCc1ccnc(S(=O)(=O)N2C[C@@H](C(=O)N3CCOCC3)C[C@@H](N3CCOCC3)C2)c1 (racemic) [Example 155, 2,2,2-trifluoroacetate]"
measurement_kind = "IC50"
assay_value = "500 to 1000 nM"

[[record]]
molecule = "CN(C)C(=O)N1C[C@@H](c2ccccc2)C[C@H](S(=O)(=O)c2cccc(CN)c2)C1 (racemic) [Example 94, 2,2,2-trifluoroacetate]"
measurement_kind = "IC50"
assay_value = "500 to 1000 nM"


Exercise: For the record NCc1cc(S(=O)(=O)N2C[C@@H](C(=O)N3CCS(=O)(=O)CC3)C[C@@H](c3ccccc3)C2)ccn1 (racemic) [Example 130, 2,2,2-trifluoroacetate] , what value of IC50 is listed for Recombinant human LOXL2 (lysyl oxidase like 2) (Homo sapiens)?
Key: 500 to 1000 nM

----------
Assay: Permeability study in Caco-2 cell line
Type: in vitro ADME
Settings: human, Caco-2, pH 7.4, Caco-2, basolateral to apical; read-out: Recovery (%)BL-AP
Procedure: Caco-2 cell suspensions were dispensed into the inserts of the 96-well HTS Transwell plate and cultivated for 14-18 days. Transepithelial electrical resistance (TEER) across the monolayer was measured using Millicell Epithelial Volt-Ohm measuring system. […] 80 μL samples were removed from the apical and basolateral wells and the fluorescence of Lucifer yellow was measured in a microplate reader with 485 nm excitation and 530 nm emission.
measurement_kind: recovery at 2 h, 5 μM (%)
Please reply with the bare figure in % and do not write the unit itself.

# count of solved cases: 3
[[record]]
compound = "CN(C)C(=O)N1C[C@@H](c2ccccc2)C[C@@H](S(=O)(=O)c2cccc(CN)c2)C1.O=C(O)C(F)(F)F (racemic) [Example 74, 2,2,2-trifluoroacetate]"
assay_value = 90.8

[[record]]
compound = "CS(=O)(=O)N1CCN(C(=O)[C@H]2C[C@@H](c3ccccc3F)CN(S(=O)(=O)c3ccc(CN)s3)C2)CC1.O=C(O)C(F)(F)F (racemic) [Example 91, 2,2,2-trifluoroacetate]"
assay_value = 78.2

[[record]]
compound = "NCc1ccc(S(=O)(=O)N2C[C@H](C(=O)N3CCOCC3)C[C@H](c3ccccc3)C2)s1 [Example 13B]"
assay_value = 78.8


Exercise: Quick check: recovery at 2 h, 5 μM of CS(=O)(=O)[C@H]1C[C@@H](S(=O)(=O)c2cccc(CN)c2)CN(c2ccccc2)C1 (racemic) ?
Key: 103

Exercise: I would be grateful if you could share the reported recovery at 2 h, 5 μM for NCc1ccc(S(=O)(=O)N2C[C@H](C(=O)N3CCS(=O)(=O)CC3)C[C@@H](c3ccccc3)C2)s1.O=C(O)C(F)(F)F (racemic) [Example 75B, 2,2,2-trifluoroacetate] .
Key: 83.5

Just for reference, patent US20230310445A1 is where these values come from.
